target: Bcl-2 protein (Recombinant Human Bcl-2 Protein) (Homo sapiens, UniProt P10415); construct: purchased Novus NBP2-34889; test: Binding evaluation of mixture library compounds to Bcl-2 using AS-MS (affinity selection mass spectrometry); details: AS-MS on the mixture of 1200 library compounds; ASMS Ratio(%)=(A−C)/B×100; replicate n = 1
Sequence (P10415 whole entry): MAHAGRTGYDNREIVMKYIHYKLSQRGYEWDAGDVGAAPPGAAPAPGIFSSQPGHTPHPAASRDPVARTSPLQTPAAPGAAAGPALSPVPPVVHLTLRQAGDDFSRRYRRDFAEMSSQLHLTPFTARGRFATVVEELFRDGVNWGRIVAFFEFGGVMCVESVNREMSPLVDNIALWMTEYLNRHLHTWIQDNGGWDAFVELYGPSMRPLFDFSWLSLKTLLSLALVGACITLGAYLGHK
A collection of compounds and their measured ASMS ratio (%) n = 1
Respond numerically; units are % and should not be typed.

Here is how some compounds turned out for ASMS ratio (%) n = 1.
CCOc1cccc(C#Cc2cc(C(=O)N3CCN(c4ccc(C(=O)N(CC)CC)nn4)CC3)cc(C(F)(F)F)c2)c1 ... −0.5
CCOc1cncc(C#Cc2ccccc2C(=O)N2CCN(c3ccc(C(=O)N(C)CC45CC6CC(CC(C6)C4)C5)nn3)CC2)c1 ... 0.6
CCOc1cncc(-c2ccc(CN3CCN(c4ccc(C(=O)Nc5ccc(OC)cc5)cc4)CC3)c(OC)c2)c1 ... 2.6

Inquiry: # input compound: "CCOc1cncc(-c2ccc(CN3CCN(c4ccc(C(=O)Nc5ccc(OC)cc5)nn4)CC3)c(CC)c2)c1" ; wanted: its ASMS ratio (%) n = 1
Reply text: 4.4

Inquiry: What do you get for "CCOc1cccc(-c2cc(C(=O)N3CCN(c4ccc(C(=O)N(C)CC56CC7CC(CC(C7)C5)C6)cc4)CC3)cc(C(F)(F)F)c2)c1" ?
Reply text: 3.8

Inquiry: What do you get for "CCOc1cncc(-c2cc(C(=O)N3CCN(c4ccc(C(=O)Nc5ccc(OC)cc5)nn4)CC3)cc(C(C)(C)C)c2)c1" ?
Reply text: 6.6

Inquiry: What do you get for "CCOc1cncc(-c2ccc(CN3CCN(c4ccc(C(=O)N(C)CC56CC7CC(CC(C7)C5)C6)cc4)CC3)c(CC)c2)c1" ?
Reply text: 6.1

Inquiry: What do you get for "CCOc1cccc(-c2cc(C(=O)N3CCN(c4ccc(C(=O)Nc5ccc(OC)cc5)cc4)CC3)cc(C(F)(F)F)c2)c1" ?
Reply text: 5.1

---

A collection of compounds and their measured ASMS ratio (%)
molecular target: Bcl-2 protein (Recombinant Human Bcl-2 Protein) (Homo sapiens); construct: purchased Novus NBP2-34889; test: Binding evaluation of mixture library compounds to Bcl-2 using AS-MS (affinity selection mass spectrometry); settings: n = 2
Respond numerically; units are % and should not be typed.

CCOc1cccc(-c2csc(CN3CCN(c4ccc(C(=O)NS(=O)(=O)c5ccc(NCCSc6ccccc6)c(C(F)(F)F)c5)cc4)CC3)c2)c1 ... 0.0

Inquiry: # input compound: "CCOc1cccc(-c2csc(C(=O)N3CCN(c4ccc(C(=O)NS(=O)(=O)C(C)(C)C)cc4)CC3)c2)c1" ; wanted: its ASMS ratio (%)
Reply text: 0.0

Inquiry: What do you get for "CCOc1cccc(-c2cc(OC)c(CN3CCN(c4ccc(C(=O)NS(C)(=O)=O)cc4)CC3)c(OC)c2)c1" ?
Reply text: 0.0

Inquiry: What do you get for "CCOc1cccc(-c2ccc(C(=O)N3CCN(c4ccc(C(=O)NS(=O)(=O)c5ccc(NCCSc6ccccc6)c(C(F)(F)F)c5)nn4)CC3)cc2F)c1" ?
Reply text: 39.5

Inquiry: What do you get for "CCOc1cncc(-c2ccc(C(=O)N3CCN(c4ccc(C(=O)NS(=O)(=O)CCC(F)(F)F)cc4)CC3)cc2F)c1" ?
Reply text: −0.9

Inquiry: What do you get for "CCOc1cncc(-c2ccc(C(=O)N3CCN(c4ccc(C(=O)NS(=O)(=O)C(C)(C)C)nn4)CC3)c3ccccc23)c1" ?
Reply text: 0.5

Inquiry: What do you get for CCOc1cccc(-c2ccc(C(C)N3CCN(c4ccc(C(=O)NS(=O)(=O)CCC(F)(F)F)cc4)CC3)cc2)c1 (stereo not shown) ?
Reply text: 0.0

Inquiry: What do you get for "CCOc1cncc(-c2ccc(CN3CCN(c4ccc(C(=O)NS(=O)(=O)c5ccc(NCCSc6ccccc6)c(C(F)(F)F)c5)nn4)CC3)c(CC)c2)c1" ?
Reply text: 19.7

Inquiry: What do you get for "CCOc1cncc(C#Cc2ccccc2C(=O)N2CCN(c3ccc(C(=O)NS(=O)(=O)c4ccc(NCCSc5ccccc5)c(C(F)(F)F)c4)nn3)CC2)c1" ?
Reply text: 19.5

Inquiry: What do you get for "CCOc1cncc(-c2ccc(CN3CCN(c4ccc(C(=O)NS(C)(=O)=O)cc4)CC3)c(CC)c2)c1" ?
Reply text: −1.5

Inquiry: What do you get for "CCOc1cncc(-c2cnn(-c3cc(C(=O)N4CCN(c5ccc(C(=O)NS(=O)(=O)CCC(F)(F)F)nn5)CC4)cc(C(F)(F)F)c3)c2)c1" ?
Reply text: 0.0

Inquiry: What do you get for "CCOc1cccc(-c2ccc(CN3CCN(c4ccc(C(=O)NS(=O)(=O)C(C)(C)C)cc4)CC3)cc2C)c1" ?
Reply text: 0.0

Inquiry: What do you get for "CCOc1cccc(-c2ccc(CN3CCN(c4ccc(C(=O)NS(C)(=O)=O)nn4)CC3)c(CC)c2)c1" ?
Reply text: 0.0

---

A collection of molecules and their measured ASMS ratio (%) n = 2
target: Bcl-2 protein (Recombinant Human Bcl-2 Protein) (Homo sapiens); construct: purchased Novus NBP2-34889; assay: Binding evaluation of mixture library compounds to Bcl-2 using AS-MS (affinity selection mass spectrometry); conditions: AS-MS, mixture of 1200 compounds, Bcl-2; ASMS Ratio(%)=(A−C)/B×100; replicate n = 2
Respond numerically; units are % and should not be typed.

Here is how some molecules turned out for ASMS ratio (%) n = 2.
CCOc1cncc(-c2cnn(-c3cc(C(=O)N4CCN(c5ccc(C(=O)NCC(F)(F)F)cc5)CC4)cc(C(F)(F)F)c3)c2)c1 ... 1.0
CCOc1cncc(-c2cc(CN3CCN(c4ccc(C(=O)NCC(F)(F)F)cc4)CC3)cc(OCC)c2)c1 ... 0.2
CCOc1cccc(-c2ccc(CN3CCN(c4ccc(C(=O)NCC56CC7CC(CC(C7)C5)C6)nn4)CC3)c3ccccc23)c1 ... 15.4

Inquiry: # input molecule: "CCOc1cccc(-c2cc(CN3CCN(c4ccc(C(=O)NCC(F)(F)F)nn4)CC3)cc(OC(C)C)c2)c1" ; wanted: its ASMS ratio (%) n = 2
Reply text: 0.0

Inquiry: What do you get for "CCOc1cccc(-c2cc(CN3CCN(c4ccc(C(=O)NCC(F)(F)F)cc4)CC3)cc(OC(C)C)c2)c1" ?
Reply text: −2.6

Inquiry: What do you get for "CCOc1cncc(C#Cc2cncc(C(=O)N3CCN(c4ccc(C(=O)NCC(F)(F)F)nn4)CC3)c2)c1" ?
Reply text: 0.0

Inquiry: What do you get for "CCOc1cncc(C#Cc2ccccc2CN2CCN(c3ccc(C(=O)NCC45CC6CC(CC(C6)C4)C5)nn3)CC2)c1" ?
Reply text: 7.4

---

target: Bcl-2 protein (Recombinant Human Bcl-2 Protein) (Homo sapiens); construct: purchased Novus NBP2-34889; test: Binding evaluation of mixture library compounds to Bcl-2 using AS-MS (affinity selection mass spectrometry); settings: AS-MS, mixture library, Bcl-2; replicate n = 2; ASMS Ratio(%)=(A−C)/B×100
Readout: ASMS ratio (%) n = 2
Respond numerically; units are % and should not be typed.

Inquiry: # input molecule: "CCOc1cccc(-c2ccc(CN3CCN(c4ccc(C(=O)NS(=O)(=O)c5ccc(NCCSc6ccccc6)c([N+](=O)[O-])c5)cc4)CC3)c(CC)c2)c1" ; wanted: its ASMS ratio (%) n = 2
Reply text: −4.8

Inquiry: What do you get for "CCOc1cccc(C#Cc2cncc(C(=O)N3CCN(c4ccc(C(=O)NS(=O)(=O)c5ccc(NCCSc6ccccc6)c([N+](=O)[O-])c5)cc4)CC3)c2)c1" ?
Reply text: −4.1

Inquiry: What do you get for "CCOc1cccc(-c2ccc(C(=O)N3CCN(c4ccc(C(=O)NS(=O)(=O)c5ccc(NCCSc6ccccc6)c([N+](=O)[O-])c5)nn4)CC3)c3ccccc23)c1" ?
Reply text: 0.0

Inquiry: What do you get for CCOc1cccc(-c2ccc(C(C)N3CCN(c4ccc(C(=O)N(CC)CC)cc4)CC3)c(F)c2)c1 (stereo not drawn) ?
Reply text: 0.0

Inquiry: What do you get for "CCOc1cccc(C#Cc2ccccc2CN2CCN(c3ccc(C(=O)NS(=O)(=O)CC45CC6CC(CC(C6)C4)C5)nn3)CC2)c1" ?
Reply text: 13.8

Inquiry: What do you get for "CCOc1cncc(-c2ccccc2CN2CCN(c3ccc(C(=O)NS(=O)(=O)c4ccc(NCCSc5ccccc5)c([N+](=O)[O-])c4)nn3)CC2)c1" ?
Reply text: 11.4

---

molecular target: Bcl-2 protein (Recombinant Human Bcl-2 Protein) (Homo sapiens); construct: purchased Novus NBP2-34889; test: Binding evaluation of mixture library compounds to Bcl-2 using AS-MS (affinity selection mass spectrometry); settings: n = 2
Readout: ASMS ratio (%)
Respond numerically; units are % and should not be typed.

Here is how some compounds turned out for ASMS ratio (%).
CCOc1cccc(-c2cc(CN3CCN(c4ccc(C(=O)NS(=O)(=O)C(C)(C)C)cc4)CC3)cc(OC(F)(F)F)c2)c1 ... 0.0
CCOc1cccc(-c2ccc(C(C)N3CCN(c4ccc(C(=O)NS(=O)(=O)C(C)(C)C)cc4)CC3)cc2)c1 (stereo not shown) ... 0.0
CCOc1cccc(-c2ccc(C(=O)N3CCN(c4ccc(C(=O)NS(=O)(=O)CCC(F)(F)F)cc4)CC3)c3ccccc23)c1 ... 0.0
CCOc1cccc(-c2cc(CN3CCN(c4ccc(C(=O)NS(C)(=O)=O)nn4)CC3)cc(OCC)c2)c1 ... 0.0
CCOc1cncc(-c2ccccc2CN2CCN(c3ccc(C(=O)NS(=O)(=O)c4ccc(NCCSc5ccccc5)c(C(F)(F)F)c4)nn3)CC2)c1 ... 11.4
CCOc1cncc(-c2ccccc2CCC(=O)N2CCN(c3ccc(C(=O)NS(=O)(=O)C(C)(C)C)nn3)CC2)c1 ... 7.3

Now for a further compound.
Inquiry: # input compound: CCOc1cccc(-c2ccc(C(C)N3CCN(c4ccc(C(=O)NS(=O)(=O)CCC(F)(F)F)cc4)CC3)c(F)c2)c1 (stereo not shown) ; wanted: its ASMS ratio (%)
Reply text: 0.0

The reported measurements were obtained from patent US20240132431A1.
